This section presents binders with their documented FACS fluorescence values.
# TARGET_DESC: T1, human CLDN6 fused to GFP, expressed on engineered HEK293T cells (HEK293T-CLDN6-mGFP) (human, UniProt P56747 1-220)
# T1 construct: It calls residues 1-21 a signal peptide; also called Claudin-6; HEK293T-CLDN6-mGFP Artificial CLDN6+; not shown: mGFP tag
# T1 sequence: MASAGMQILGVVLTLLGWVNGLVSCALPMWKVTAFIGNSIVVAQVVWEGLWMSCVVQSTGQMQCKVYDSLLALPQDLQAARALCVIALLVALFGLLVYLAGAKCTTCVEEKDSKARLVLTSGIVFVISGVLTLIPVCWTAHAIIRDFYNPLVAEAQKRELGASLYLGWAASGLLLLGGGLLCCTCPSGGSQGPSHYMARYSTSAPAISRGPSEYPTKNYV
# ASSAY_NAME: FACS, 1.5 µg Ab, 293T clone with human CLDN6
PARAMETER_MEASURED: FACS fluorescence

binder="AB3-chim (antibody, V domains shown, 'chim' is the pre-humanized form (parental variable regions); also called pre-humanized (chimeric) form of AB3) VH: EVKLEESGGGLVQPGGSMKLSCVASGFTFSNYWMNWVRQSPEKGLEWVAQIRLKSDNYATHYAESVKGRFTISRDDSKRSVYLQMNNLRAEDTGTYYCNDGPPSGCWGQGTTLIVSS VL: DIQMTQSPASLSASVGETVTITCRISENIYSYLAWYQQKQGKSPQLLVYNAKILVEGVPSRFSGSGSGTQFSLKINSLQPEDFGNYYCQHHYTVPWTFGGGTKLEIK" parameter_measured="FACS fluorescence" result_number=459000
binder="AB9-3 (antibody, V domains shown, also called Humanized AB 9-3) VH: QVQLVQSGAEVKKPGASVKMSCKASGYRFTDYNMHWVRQAPGQGLEWIGYINPNNGGTNYAQKFQGRATLTVDTSTSTAYMELSSLRSEDTAVYYCARDYLYFFDCWGQGTLLTVSS VL: DIQMTQSPSSLSASVGDRVTITCLASQTIGTWLAWYQQKPGKAPKLLIYAAASLADGVPSRFSGSGSGTDFTFTISSLQPEDFVTYYCQQLYSIPRTFGQGTKLEIK" parameter_measured="FACS fluorescence" result_number=24600
binder="AB4-7 (antibody, V domains shown, also called Humanized AB 4-7) VH: QVQLVQSGAEVKKPGASVKMSCKASGYTFTSYTMHWIRQAPGQGQEWIGYINPSSTYTHYAQKFQGRATLTADKSTSTAYMELSSLRSEDTAVYYCSRGELGGFAYWGQGTLVTVSS VL: DVVMTQSPLSLPVTLGQPASISCRSSQSLVHSDGNTYLNWYQQRPGQSPRLLIYKVSNRFSGVPDRFSGSGSGTDFTLKISRVEAEDVGVYYCSQSTHVPYTFGQGTKLEIK" parameter_measured="FACS fluorescence" result_number=33300
